- test_target: Thromboxane A2 receptor (Homo sapiens); further: assay procedure not described here
- Sequence (P21731 whole entry): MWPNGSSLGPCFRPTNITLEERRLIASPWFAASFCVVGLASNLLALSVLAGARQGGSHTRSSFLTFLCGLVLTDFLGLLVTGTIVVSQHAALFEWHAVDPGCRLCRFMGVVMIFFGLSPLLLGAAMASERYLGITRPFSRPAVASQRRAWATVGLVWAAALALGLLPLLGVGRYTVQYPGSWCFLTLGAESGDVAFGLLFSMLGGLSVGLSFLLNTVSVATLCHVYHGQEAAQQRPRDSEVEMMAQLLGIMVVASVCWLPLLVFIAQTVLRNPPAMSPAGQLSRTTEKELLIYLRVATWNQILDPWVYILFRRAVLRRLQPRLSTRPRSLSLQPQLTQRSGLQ
- Type: functional, cell-based
The following compounds are shown together with reported AC50 values.

>  <compound>
CC1(C)NC(=O)N(c2ccc([N+](=O)[O-])c(C(F)(F)F)c2)C1=O [NILUTAMIDE]

>  <AC50>
> 30 µM

$$$$
>  <compound>
CCN(CC)CCNc1ccc(CO)c2sc3ccccc3c(=O)c12

>  <AC50>
> 30 µM

$$$$

Now consider the entry below.
q: # input compound: `CC(C)C[C@H]1C(=O)N2CCC[C@H]2[C@]2(O)O[C@](NC(=O)[C@@H]3C=C4c5cccc6[nH]c(Br)c(c56)C[C@H]4N(C)C3)(C(C)C)C(=O)N12` ; wanted: its AC50
a: 18.8 µM
